Reference source: ChEMBL document CHEMBL4673284

method: Kinetic solubility of the compound in aqueous PBS buffer at H 7.4/2.5% DMSO incubated for 1 hr by nephelometry
Type: physicochemical
recorded_conditions: aqueous PBS buffer with 2.5% DMSO, pH 7.4, read-out: Kinetic_solubility
readout: solubility kinetic at 1 h (µM)
Value expressed in µM; do not type the unit.

Past entries and their recorded results:
In [3]: df
Out[3]:
                                   molecule                    readout  value
0  C=C1CN(S(=O)(=O)c2ccc(C)cc2)CCc2cc(OC)cc(n2)CCN(S(=O)(=O)c2ccc(C)cc2)C1.Cl  solubility kinetic at 1 h     64
1  C=C1CN(S(=O)(=O)c2ccc(C)cc2)CCCN(Cc2ccccc2)CCCN(S(=O)(=O)c2ccc(C)cc2)C1.Cl [CYCLOTRIAZADISULFONAMIDE HYDROCHLORIDE]  solubility kinetic at 1 h     43
2  C=C1CN(S(=O)(=O)c2ccc(C)cc2)CCc2cc(-c3ccccc3)cc(n2)CCN(S(=O)(=O)c2ccc(C)cc2)C1.Cl  solubility kinetic at 1 h     61
3  C=C1CN(S(=O)(=O)c2ccc(C)cc2)CCc2cc(OCC)cc(n2)CCN(S(=O)(=O)c2ccc(C)cc2)C1.Cl  solubility kinetic at 1 h     54

Provide only the value of recorded solubility kinetic at 1 h for C=C1CN(S(=O)(=O)c2ccc(C)cc2)CCc2cc(OCC3CCCCC3)cc(n2)CCN(S(=O)(=O)c2ccc(C)cc2)C1.Cl 65
